Reference for the values: ChEMBL document CHEMBL3885881

Species: Rattus norvegicus
Experiment: DrugMatrix - Regimen: Daily Repeat
Format: toxicity, organism-based, Sprague-Dawley
Parameters: regimen Daily Repeat, gender Male, age 6-8 weeks
Conditions: in vivo, po, 0 mg/kg, 72 h, tissue Blood, route oral GAVAGE, dose level Control, time 3 day, […]
Could you please mark true (1) for values of EOSINOPHIL below 0.3% and false (0) for values at or above it?

Example results:
>>> cat("CC1=C(/C=C/C(C)=C/C=C/C(C)=C\\C(=O)O)C(C)(C)CCC1")
"true (1)"
>>> cat("CCCC[C@@H](CC)COC(=O)c1ccccc1C(=O)OC[C@@H](CC)CCCC [BIS(2-ETHYLHEXYL)PHTHALATE]")
"true (1)"
>>> cat("CSc1ccc2c(c1)N(CCC1CCCCN1C)c1ccccc1S2 (stereo not given)")
"false (0)"

Exercise: Strictly below 0.3%: is that where EOSINOPHIL of C=CCN sits?
Key: false (0)

Exercise: Strictly below 0.3%: is that where EOSINOPHIL of COC1=CC(=O)C[C@@H](C)[C@]12Oc1c(Cl)c(OC)cc(OC)c1C2=O sits?
Key: true (1)
